Tgt: T1, P5
T1 chain: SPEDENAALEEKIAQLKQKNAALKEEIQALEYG
Measurement Description: two-hybrid library CC1;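 further: natural log of median RNA to DNA barcode read ratio; higher means stronger binding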
Experimental Conditions: mean of both orientations
Value Type: interaction score

{"Binder": "ENQALEQEIAQLEQEIAALEQKNAQLKYG [P11]", "interaction score": -2.7}
{"Binder": "SPEDKIAQLKQKIQALKQENQQLEEENAALEYG [P4]", "interaction score": -3.06}
{"Binder": "KISQLKQKIQQLKQENQQLEEENSQLEYG [P4mS]", "interaction score": -3.02}
{"Binder": "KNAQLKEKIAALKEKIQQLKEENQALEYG [P12]", "interaction score": -2.87}
{"Binder": "SPEDEIQQLEEEIAQLEQKNAALKEKNQALKYG [P3]", "interaction score": -2.66}
{"Binder": "EIQQLEEEISQLEQKNSQLKEKNQQLKYG [P3mS]", "interaction score": -2.93}

In the following, a different binder is considered.
Problem: Need interaction score of KNAQLKEENAALEEKIQQLKEKIQALKYG [P10] , thanks.
Result: -2.96
